hCD71:HSA for assorted binders
SYSTEM_TESTED: T1, human CD71 extracellular domain (human, UniProt P02786 89-760)
T1 construct: also called hCD71; CD71-ECD
METHOD_SUMMARY: primary ELISA; signal over HSA control
Write down the numeric answer in ratio and omit the unit.

// below: answered binders
- BINDER: "CD71-binding FN3 domain SEQ ID NO 406 (designed binder) MLPAPKNLVVSRVTEDSARLSWTAPDAAFDSFFIDYDESLDSGEAIVLTVPGSERSYDLTGLKPGTEYNVTIQGVKGGFPSSPLEAAFTT"
  UOM: "ratio"
  OBS_VALUE: 185
- BINDER: "CD71-binding FN3 domain SEQ ID NO 357 (designed binder) MLPAPKNLVVSRVTEDSARLSWTAPDAAFDSFFIGYLEPQPPGEAIGLFVPGSERSYDLTGLKPGTEYNVTIQGVKGGFPSDPLVAYFTT"
  UOM: "ratio"
  OBS_VALUE: 16
- BINDER: "CD71-binding FN3 domain SEQ ID NO 405 (designed binder) MLPAPKNLVVSRVTEDSARLSWTAPDAAFDSFFIGYLEPQPPGEAIHLWVPGSERSYDLTGLKPGTEYNVTIQGVKGGFPSLPLSAFFTT"
  UOM: "ratio"
  OBS_VALUE: 108

Could you now consider this next binder?
Form: binder = CD71-binding FN3 domain SEQ ID NO 421 (designed binder, The cell prints '42') MLPAPKNLVVSRVTEDSARLSWTAPDAAFDSFFIGYLEPQPPGEAIDLWVPGSERSYDLTGLKPGTEYNVTIQGVKGGFPSMPLEAVFTT ; hCD71:HSA = 167
